- systemTested: HIF-PH2 (Homo sapiens)
- Construct: made in house; host or cells: insect Hi5 cells
- experimentNotes: HIF-PH assay (14CO2 capture, peptide-dependent turnover)
- Assay type: biochemical
- details: Concentration 200.00 μM
reportedProperty: inhibition at 200 µM (%)

Worked set:
compound: O=C(O)CNC(=O)c1c(O)c2cccc(Cl)c2oc1=O [Example 7]
systemTested: HIF-PH2 (Homo sapiens)
valueUnit: %
assayResult: 100
--
compound: O=C(O)CNC(=O)c1c(O)c2c(ccc3ccccc32)oc1=O [Example 33]
systemTested: HIF-PH2 (Homo sapiens)
valueUnit: %
assayResult: 100

A. Cc1ccc2oc(=O)c(C(=O)NCC(=O)O)c(O)c2c1 [Example 6]
B. CCOC(=O)CNC(=O)c1c(O)c2cc(Cl)cc(Cl)c2oc1=O [Example 14]
Q: Returns the identifier with the smallest measured inhibition at 200 µM among A and B . Write down the label attached to your selection.
A: B

###

- systemTested: HIF-PH2 (Homo sapiens, UniProt Q9GZT9)
- Construct: made in house; host or cells: insect Hi5 cells
- Sequence (Q9GZT9 whole entry, species assumed): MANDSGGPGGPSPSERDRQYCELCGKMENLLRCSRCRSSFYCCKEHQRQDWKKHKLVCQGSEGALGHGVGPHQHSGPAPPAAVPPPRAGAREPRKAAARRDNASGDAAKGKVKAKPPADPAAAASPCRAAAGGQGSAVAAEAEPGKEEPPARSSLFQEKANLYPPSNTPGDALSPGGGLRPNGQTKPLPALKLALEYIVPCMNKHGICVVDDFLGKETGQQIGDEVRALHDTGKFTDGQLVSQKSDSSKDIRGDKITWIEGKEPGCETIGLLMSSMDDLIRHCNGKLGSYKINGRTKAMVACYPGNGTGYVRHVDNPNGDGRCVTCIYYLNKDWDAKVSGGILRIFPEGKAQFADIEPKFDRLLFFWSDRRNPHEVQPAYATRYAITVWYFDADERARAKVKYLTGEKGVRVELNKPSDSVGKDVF
- experimentNotes: HIF-PH assay (14CO2 capture, peptide-dependent turnover)
- Type: biochemical
- details: Concentration 22.22 μM
reportedProperty: inhibition at 22.22 µM (%)

compound: O=C(O)CNC(=O)c1c(O)c2ccccc2oc1=O [Example 1]
systemTested: HIF-PH2 (Homo sapiens, UniProt Q9GZT9)
assayResult: 96
//
compound: O=C(O)CNC(=O)c1c(O)c2cc(-c3ccc(OCc4ccccc4)cc3)ccc2oc1=O [Example 8]
systemTested: HIF-PH2 (Homo sapiens, UniProt Q9GZT9)
assayResult: 100
//
compound: O=C(O)CNC(=O)c1c(O)c2cc(Cl)cc(Cl)c2oc1=O [Example 13]
systemTested: HIF-PH2 (Homo sapiens, UniProt Q9GZT9)
assayResult: 96
//
compound: O=C(O)CNC(=O)c1c(O)c2ccc(Oc3ccccc3)cc2oc1=O [Example 9]
systemTested: HIF-PH2 (Homo sapiens, UniProt Q9GZT9)
assayResult: 100
//
compound: O=C(O)CNC(=O)c1c(O)c2cc(Br)ccc2oc1=O [Example 2]
systemTested: HIF-PH2 (Homo sapiens, UniProt Q9GZT9)
assayResult: 97
//
compound: O=C(O)CNC(=O)c1c(O)c2ccc(-c3ccc(Oc4ccccc4)cc3)cc2oc1=O [Example 11]
systemTested: HIF-PH2 (Homo sapiens, UniProt Q9GZT9)
assayResult: 100
//
compound: Cc1ccc2c(O)c(C(=O)NCC(=O)O)c(=O)oc2c1C [Example 10]
systemTested: HIF-PH2 (Homo sapiens, UniProt Q9GZT9)
assayResult: 100

###

- systemTested: HIF-PH2 (Homo sapiens, UniProt Q9GZT9)
- Construct: made in house; host or cells: insect Hi5 cells
- experimentNotes: HIF-PH assay (14CO2 capture, peptide-dependent turnover)
- Assay type: biochemical
- details: Concentration 12.50 μM
reportedProperty: inhibition at 12.5 µM (%)

compound: O=C(O)CNC(=O)c1c(O)c2cc(F)cc(F)c2oc1=O [Example 18]
valueUnit: %
assayResult: 95
//
compound: O=C(O)CNC(=O)c1c(O)c2cc(F)ccc2oc1=O [Example 16]
valueUnit: %
assayResult: 96
//
compound: O=C(O)CNC(=O)c1c(O)c2cc(-c3cccs3)ccc2oc1=O [Example 27]
valueUnit: %
assayResult: 99
//
compound: O=C(O)CNC(=O)c1c(O)c2ccc(F)cc2oc1=O [Example 17]
valueUnit: %
assayResult: 98
//
compound: O=C(O)CNC(=O)c1c(O)c2cc3cc(Br)ccc3c(Br)c2oc1=O [Example 34]
valueUnit: %
assayResult: 100
//
compound: Cc1ccc2c(O)c(C(=O)NCC(=O)O)c(=O)oc2c1 [Example 35]
valueUnit: %
assayResult: 97
//
compound: Cc1cc2oc(=O)c(C(=O)NCC(=O)O)c(O)c2cc1C [Example 15]
valueUnit: %
assayResult: 98
//
compound: O=C(O)CNC(=O)c1c(O)c2cc3ccccc3cc2oc1=O [Example 32]
valueUnit: %
assayResult: 98
//
compound: O=C(O)CNC(=O)c1c(O)c2cc(-c3ccco3)ccc2oc1=O [Example 28]
valueUnit: %
assayResult: 100
//
compound: O=C(O)CNC(=O)c1c(O)c2ccc3ccccc3c2oc1=O [Example 31]
valueUnit: %
assayResult: 100
